Source listed as patent US7022673B2.

Experiment Summary: Serum half-life after intravenous injection into mice
Assay type: in vivo
Protocol Conditions: mice, intravenous injection
No end group written: not given here.
# key: entry, value: serum half-life
Parameter Measured: serum half-life (h)

Substance	Measure Unit	Measured
uPA1-48 /PEG3.4 kD conjugate: uPA1-48 N-terminal aldehyde coupled to PEG hydrazide of nominal average molecular weight 3.4 kD ({PEG 3.4 kDa hydrazone}-SNELHQVPSNCDCLNGGTCVSNKYFSNIHWCNCPKKFGGQHCEIDKSK; cysteine pairing not given here; UniProt P00749 21-68, looked up, fragment)	h	0.2
uPA1-48/PEG20 kD conjugate: uPA1-48 N-terminal aldehyde coupled to PEG hydrazide of nominal average molecular weight 20 kD ({PEG 20 kDa hydrazone}-SNELHQVPSNCDCLNGGTCVSNKYFSNIHWCNCPKKFGGQHCEIDKSK; cysteine pairing not given here; UniProt P00749 21-68, looked up, fragment)	h	2.17

* * *

Experiment Summary: Serum half-life after intravenous injection into mice
Type: in vivo
Protocol Conditions: mice, intravenous injection
No end group written: not given here.
Parameter Measured: serum half-life (h)

Substance	Measure Unit	Measured
uPA1-48/PEG5 kD conjugate: uPA1-48 N-terminal aldehyde coupled to PEG hydrazide of nominal average molecular weight 5 kD ({PEG 5 kDa hydrazone}-SNELHQVPSNCDCLNGGTCVSNKYFSNIHWCNCPKKFGGQHCEIDKSK; cysteine pairing not given here; UniProt P00749 21-68, looked up, fragment)	h	0.733
uPA1-48/PEG50 kD dimeric conjugate: a uPA1-48 molecule conjugated at each end of PEG50 kD (SNELHQVPSNCDCLNGGTCVSNKYFSNIHWCNCPKKFGGQHCEIDKSK; cysteine pairing not given here; also: dimer: one uPA1-48 conjugated at each end of PEG 50 kDa, site not given here; UniProt P00749 21-68, looked up, fragment)	h	4.8
uPA1-48/PEG25 kD conjugate: uPA1-48 N-terminal aldehyde coupled to PEG hydrazide of nominal average molecular weight 25 kD ({PEG 25 kDa hydrazone}-SNELHQVPSNCDCLNGGTCVSNKYFSNIHWCNCPKKFGGQHCEIDKSK; cysteine pairing not given here; UniProt P00749 21-68, looked up, fragment)	h	4.62
